biological target: Cyclin-dependent kinase 5 (Homo sapiens); conditions: at 0.1 µM;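 further: enzyme tested as the CDK5/p35 complex, values are mean percent inhibition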
inhibition of 0.3% or higher: Satisfied. Under 0.3%: Not satisfied.

Recorded results for 7 compounds are shown here.
{"columns": ["Structure As Smiles", "Measured On", "Assigned Label"],
 "data": [
  ["COc1cc(/C=N/Nc2ncnc3[nH]ncc23)ccc1O", "Cyclin-dependent kinase 5 (Homo sapiens)", "Satisfied"],
  ["CNC(=O)c1cncc(/C=C/c2ccccc2Cl)c1", "Cyclin-dependent kinase 5 (Homo sapiens)", "Not satisfied"],
  ["COc1cc2ncn(-c3cc(OCc4ccccc4C(F)(F)F)c(C(=O)N(C)C)s3)c2cc1OC", "Cyclin-dependent kinase 5 (Homo sapiens)", "Not satisfied"],
  ["CC(C)COC(=O)c1ccc2c(c1)/C(=C/Nc1ccc(S(N)(=O)=O)cc1)C(=O)N2", "Cyclin-dependent kinase 5 (Homo sapiens)", "Satisfied"],
  ["Nc1nc(-c2cccc(Cl)c2)c(-c2ccc3ncccc3n2)s1", "Cyclin-dependent kinase 5 (Homo sapiens)", "Satisfied"],
  ["CS(=O)(=O)CCNCc1ccc(-c2ccc3ncnc(Nc4ccc(OCc5ccccc5)c(C(F)(F)F)c4)c3c2)o1", "Cyclin-dependent kinase 5 (Homo sapiens)", "Not satisfied"],
  ["CCCN(CCS(C)(=O)=O)Cc1ccc(-c2ccc3ncnc(Nc4ccc(OCc5cccc(F)c5)c(Cl)c4)c3c2)o1", "Cyclin-dependent kinase 5 (Homo sapiens)", "Satisfied"]
]}

Hi, just wondering whether COc1cc2c(cc1Nc1nc(Nc3ccsc3C(N)=O)c3cc[nH]c3n1)N(C(=O)CN(C)C)CCC2(C)C shows inhibition of 0.3% or higher.
Satisfied

----------
biological target: Ribosomal protein S6 kinase alpha-1 (Homo sapiens) (UniProt Q15418); conditions: at 1 µM;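 further: mean inhibition of RSK1, reported in the GSK PKIS screen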
Sequence (Q15418 whole entry): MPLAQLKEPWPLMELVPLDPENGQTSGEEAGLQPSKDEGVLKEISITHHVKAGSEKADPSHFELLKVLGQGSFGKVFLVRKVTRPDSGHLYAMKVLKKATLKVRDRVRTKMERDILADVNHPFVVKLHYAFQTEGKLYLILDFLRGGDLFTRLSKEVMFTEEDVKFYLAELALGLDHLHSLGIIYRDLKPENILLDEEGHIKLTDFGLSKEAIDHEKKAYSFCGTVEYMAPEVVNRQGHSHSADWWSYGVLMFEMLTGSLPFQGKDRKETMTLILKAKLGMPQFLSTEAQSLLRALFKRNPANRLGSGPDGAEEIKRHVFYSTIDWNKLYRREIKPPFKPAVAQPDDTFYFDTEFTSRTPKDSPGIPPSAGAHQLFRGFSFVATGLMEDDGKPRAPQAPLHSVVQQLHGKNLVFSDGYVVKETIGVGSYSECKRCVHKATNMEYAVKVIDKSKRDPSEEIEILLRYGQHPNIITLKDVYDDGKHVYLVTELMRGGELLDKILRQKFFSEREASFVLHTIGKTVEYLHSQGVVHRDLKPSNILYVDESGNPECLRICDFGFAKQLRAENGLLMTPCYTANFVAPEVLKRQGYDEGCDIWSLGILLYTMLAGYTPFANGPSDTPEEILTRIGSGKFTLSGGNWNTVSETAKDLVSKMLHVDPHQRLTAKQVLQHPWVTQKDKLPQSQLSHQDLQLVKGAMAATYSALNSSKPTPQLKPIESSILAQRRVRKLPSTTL
Known inhibition of a selection of compounds
Please reply with the bare figure in % and do not write the unit itself.

Here is how some compounds turned out for inhibition.
{"columns": ["Structure As Smiles", "Experimental Result"],
 "data": [
  ["CCn1c(-c2nonc2N)nc2c(C#CC(C)(C)O)nc(OC[C@H](N)c3ccccc3)cc21", 12.8],
  ["COc1cc(/C=N/Nc2ncnc3[nH]ncc23)ccc1O", 11.3],
  ["O=S(=O)(CCNCc1ccc(-c2ccc3ncnc(Nc4ccc(OCc5cccc(F)c5)c(Cl)c4)c3c2)o1)c1ccccc1", 4.3]
]}

Param item = CNC(=O)c1cccc(C#Cc2cncnc2Nc2ccc(OCc3cccc(F)c3)c(Cl)c2)c1 ; retrieve measured inhibition.
1.83

Please do the same for CC(=O)NCc1cccc(C#Cc2cncnc2Nc2ccc(OCc3cccc(F)c3)c(Cl)c2)c1 as well.
0.7

----------
target: Phosphatidylinositol 4-kinase beta (Homo sapiens); details: at 0.1 µM;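 further: values given are mean percent inhibition of PI4K-beta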
Catalogue of inhibition readings, one per entry.
Quick note: give the figure in %, leave out the unit.

// solved cases for inhibition follow
{"columns": ["Structure As Smiles", "Property Measured", "Readout Unit", "Experimental Result"],
 "data": [
  ["CN(C)CCOc1ccc(-c2nc(-c3ccncc3)c(-c3ccc4c(c3)CC/C4=N\\O)[nH]2)cc1", "inhibition", "%", -1.17],
  ["c1ccc(-c2nc3n(c2-c2ccc4c(c2)OCO4)CCC3)nc1", "inhibition", "%", -3.19],
  ["CCCN1CCC(c2ccc(Nc3nc(Nc4cc(F)ccc4C(N)=O)c4cc[nH]c4n3)c(OC)c2)CC1", "inhibition", "%", -9.61],
  ["Cc1cccc(Nc2ncc(-c3ccccc3)o2)c1", "inhibition", "%", 1.05]
]}

Any idea what its inhibition is? The compound is COc1cc(/C=N/Nc2ncnc3[nH]ncc23)ccc1O
6.86

----------
biological target: Dual specificity protein kinase CLK2 (Homo sapiens) (UniProt P49760); settings: at 1 µM;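 further: reported values are mean percent inhibition of CLK2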
Sequence (P49760 whole entry, looked up): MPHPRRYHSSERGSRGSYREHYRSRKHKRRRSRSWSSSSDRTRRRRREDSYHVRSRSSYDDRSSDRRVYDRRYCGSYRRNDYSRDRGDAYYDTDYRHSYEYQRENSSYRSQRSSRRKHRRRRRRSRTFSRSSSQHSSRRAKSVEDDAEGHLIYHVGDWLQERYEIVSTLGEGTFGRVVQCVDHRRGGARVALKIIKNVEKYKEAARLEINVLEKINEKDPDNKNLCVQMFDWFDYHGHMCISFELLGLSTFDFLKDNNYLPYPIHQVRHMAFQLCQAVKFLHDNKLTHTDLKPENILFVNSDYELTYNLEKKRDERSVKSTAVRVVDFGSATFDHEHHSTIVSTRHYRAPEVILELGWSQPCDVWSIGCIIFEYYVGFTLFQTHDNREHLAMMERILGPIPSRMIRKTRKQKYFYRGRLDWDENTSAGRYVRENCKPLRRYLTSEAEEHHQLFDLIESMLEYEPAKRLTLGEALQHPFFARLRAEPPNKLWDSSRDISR
Assign a class from recorded inhibition; defined classes: Low (below 2%), Mid (2% to below 30%), High (30% or more)

Previously resolved entries follow.
{"columns": ["Structure As Smiles", "Assigned Label"],
 "data": [
  ["CC(=O)Nc1cccc(C#Cc2cncnc2Nc2ccc(OCc3cccc(F)c3)c(Cl)c2)c1", "Low"],
  ["NC(=O)c1sc(-n2cnc3ccc(C(F)(F)F)cc32)cc1OCc1ccccc1Br", "Mid"],
  ["CN1CCC(n2cnc(-c3ccc(F)cc3)c2-c2ccnc(Nc3ccccc3)n2)CC1", "Low"],
  ["Cc1ccc(O)cc1Nc1ccnc2cc(-c3ccccn3)ccc12", "Mid"],
  ["COc1ccc(-c2nn3ncccc3c2-c2ccnc(Nc3ccc4c(c3)OCCO4)n2)cc1", "Low"],
  ["c1cc(-c2cnn3nc(N4CCOCC4)ccc23)nc(NC2CC2)n1", "High"]
]}

Moving on to the next molecule.
Lab note: sort CCc1nn2ncccc2c1-c1ccnc(NC2CC2)n1 into the matching inhibition band.
Mid

----------
biological target: MAP kinase-activated protein kinase 5 (Homo sapiens) (UniProt Q8IW41); conditions: at 0.1 µM
Each record here notes measured inhibition.
Write down the numeric answer in % and omit the unit.

Examples from the recorded data:
{"columns": ["Structure As Smiles", "Measured On", "Readout Unit", "inhibition"],
 "data": [
  ["CCCN(CCS(C)(=O)=O)Cc1ccc(-c2ccc3ncnc(Nc4ccc(OCc5cccc(F)c5)c(Cl)c4)c3c2)o1", "MAP kinase-activated protein kinase 5 (Homo sapiens) (UniProt Q8IW41)", "%", 0.4],
  ["Fc1ccc(-c2nn3ncccc3c2-c2ccnc(Nc3ccc4c(c3)OCCO4)n2)cc1", "MAP kinase-activated protein kinase 5 (Homo sapiens) (UniProt Q8IW41)", "%", 0.63],
  ["CCn1c(-c2nonc2N)nc2c(C#CC(C)(C)O)ncc(OC3CCNCC3)c21", "MAP kinase-activated protein kinase 5 (Homo sapiens) (UniProt Q8IW41)", "%", 0.79],
  ["Nc1ncc(-c2cccc(S(N)(=O)=O)c2)c2scc(-c3ccc(F)c(Cl)c3)c12", "MAP kinase-activated protein kinase 5 (Homo sapiens) (UniProt Q8IW41)", "%", 1.73],
  ["COc1ccc(-c2nn3ncccc3c2-c2ccnc(Nc3ccc4c(c3)OCCO4)n2)cc1", "MAP kinase-activated protein kinase 5 (Homo sapiens) (UniProt Q8IW41)", "%", 0.05]
]}

# input molecule: Fc1ccc(-c2nn3ccccc3c2-c2ccncc2)cc1 ; wanted: its inhibition
0.01

How about CNC(=O)c1cncc(/C=C/c2ccccc2Cl)c1 ?
0.27

For COc1ccc2c(-c3ccnc(Nc4cccc(OC(F)(F)F)c4)n3)cnn2n1 then?
1.98

What would you report for N#Cc1c(NC(=O)CN2CCOCC2)sc2c1CCCC2 ?
1.41

Can you handle COc1cc(/C=N/Nc2ncnc3[nH]ncc23)ccc1O next?
1.2

----------
Target: MAP kinase-activated protein kinase 5 (Homo sapiens) (UniProt Q8IW41)
Sequence (whole entry): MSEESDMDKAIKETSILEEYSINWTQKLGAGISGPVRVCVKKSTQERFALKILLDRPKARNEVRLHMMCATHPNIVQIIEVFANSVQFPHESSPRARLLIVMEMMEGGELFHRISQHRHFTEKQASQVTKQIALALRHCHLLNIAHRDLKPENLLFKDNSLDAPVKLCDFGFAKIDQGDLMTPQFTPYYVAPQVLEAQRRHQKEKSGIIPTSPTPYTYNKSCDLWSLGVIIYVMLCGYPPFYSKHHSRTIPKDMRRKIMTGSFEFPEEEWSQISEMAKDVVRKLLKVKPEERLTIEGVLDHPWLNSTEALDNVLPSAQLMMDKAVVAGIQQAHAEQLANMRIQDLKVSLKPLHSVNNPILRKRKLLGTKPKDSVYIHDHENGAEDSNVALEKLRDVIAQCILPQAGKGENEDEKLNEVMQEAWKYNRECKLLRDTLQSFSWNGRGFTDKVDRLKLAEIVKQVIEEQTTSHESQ
Settings: at 1 µM
Entries and their measured inhibition follow.
Numeric answer only, unit % assumed.

# count of solved cases: 3
{"columns": ["Structure As Smiles", "Measured On", "Property Measured", "Experimental Result"],
 "data": [
  ["COc1cc(N2CCN(C(C)C)CC2)ccc1Nc1nc(Nc2ccc(F)cc2C(N)=O)c2cc[nH]c2n1", "MAP kinase-activated protein kinase 5 (Homo sapiens) (UniProt Q8IW41)", "inhibition", 16],
  ["Fc1ccc(-c2nn3ccccc3c2-c2ccncc2)cc1", "MAP kinase-activated protein kinase 5 (Homo sapiens) (UniProt Q8IW41)", "inhibition", -0.42],
  ["COc1cc(Nc2nccc(Nc3ccc4c(C)n[nH]c4c3)n2)cc(OC)c1OC", "MAP kinase-activated protein kinase 5 (Homo sapiens) (UniProt Q8IW41)", "inhibition", -1.77]
]}

Proceed to the following item.
Item under review: CN1CCC(n2cnc(-c3ccc(F)cc3)c2-c2ccnc(N)n2)CC1 . Reported inhibition?
1.6

----------
molecular target: Phosphatidylinositol 4,5-bisphosphate 3-kinase catalytic subunit delta isoform (Homo sapiens); settings: at 1 µM;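 further: reported values are mean percent inhibition of PI3K-delta activity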
Property Measured: inhibition (%)
// return numeric value only (unit: %, not printed)

Take a look at these entries with their results.
{"columns": ["Structure As Smiles", "inhibition [%]"],
 "data": [
  ["CS(=O)(=O)CCNCc1coc(-c2ccc3ncnc(Nc4ccc(OCc5ccccc5)cc4)c3c2)c1", 0.49],
  ["CNC(=O)c1cc(-c2ccc(F)cc2)cc(-c2ccc(S(=O)(=O)N3CCCC3)cc2)c1N", 1.11],
  ["COc1cc2c(cc1Nc1nc(Nc3ccsc3C(N)=O)c3cc[nH]c3n1)N(C(=O)CN(C)C)CCC2(C)C", 13.9],
  ["CNC(=O)c1cncc(/C=C/c2ccccc2Cl)c1", 0.38],
  ["c1ccc(-c2nc3n(c2-c2ccc4c(c2)OCO4)CCC3)nc1", 8.16]
]}

Reported inhibition for CC(C)COC(=O)c1ccc2c(c1)/C(=C/Nc1ccc(S(N)(=O)=O)cc1)C(=O)N2 : what is it?
2.64

Try this compound too: CCCN(CCS(C)(=O)=O)Cc1ccc(-c2ccc3ncnc(Nc4ccc(OCc5cccc(F)c5)c(Cl)c4)c3c2)o1
6.07

Ok, now COc1cc2ncn(-c3cc(OCc4ccccc4C(F)(F)F)c(C(=O)N(C)C)s3)c2cc1OC
2.3

Now this one: O=C(O[C@H]1CN[C@H](C#Cc2cc3ncnc(Nc4ccc(Cc5ccccc5)cc4)c3s2)C1)N1CCOCC1
8.98

Queued: COc1cccc(-c2c[nH]c3c(N/N=C/c4ccncc4)ncnc23)c1
3.3

Repeat with CNC(=O)c1cccc(C#Cc2cncnc2Nc2ccc(OCc3cccc(F)c3)c(Cl)c2)c1
-1.1

Similarly, Cc1ccc2c(-c3ccnc(Nc4ccccc4)n3)c(-c3ccc(F)cc3)nn2n1 ?
4.54

Same for CCn1c(-c2nonc2N)nc2cnc(Oc3cccc(NC(=O)c4ccc(N(C)C)cc4)c3)cc21
1.65

Follow-up item: COc1ccc2c(-c3ccnc(Nc4cccc(OC(F)(F)F)c4)n3)cnn2n1
5.67

Let us now turn to CN1CCC(n2cnc(-c3ccc(F)cc3)c2-c2ccnc(N)n2)CC1
27.1

Then this compound: COc1ccc(-c2cc(-c3c[nH]nc3-c3ccccn3)ccn2)cc1
0.72

Note, next up: Fc1ccc(-c2nn3ccccc3c2-c2ccncc2)cc1
2.31

Moving on to the next compound: COc1cc(Nc2nccc(Nc3ccc4c(C)n[nH]c4c3)n2)cc(OC)c1OC
21.3

// same read-out, input: Cc1ccc(O)cc1Nc1ccnc2cc(-c3ccccn3)ccc12
15.8

// next record CCn1cc(-c2ccnc3[nH]ccc23)c(-c2cccc(NC(=O)Nc3ccc(OCc4ccccc4)cc3)c2)n1
1.17
